# Organism: Rattus norvegicus
# test-description: DrugMatrix - Regimen: Daily Repeat
# Assay type: toxicity, organism-based, Sprague-Dawley
# Design: regimen Daily Repeat, gender Male, age 6-8 weeks
# conditions: in vivo, po, 1500 mg/kg, 120 h, tissue Blood, route oral GAVAGE, dose level High, time 5 day, vehicle .5 % CMC
reported-endpoint: LEUKOCYTE COUNT (x10E3/uL)
Give bare numbers, in x10E3/uL.

>>> print(df.to_string())
                                   molecule  reported_endpoint  value
0  O=c1cnn([C@@H]2O[C@H](CO)[C@@H](O)[C@H]2O)c(=O)[nH]1    LEUKOCYTE COUNT  14.37

Go through the items and report each one's LEUKOCYTE COUNT.
1. CN(C)[C@@H]1C(O)=C(C(N)=O)C(=O)[C@@]2(O)C(O)=C3C(=O)c4c(O)ccc(Cl)c4[C@@](C)(O)[C@H]3C[C@@H]12
2. CC(C)=CCC/C(C)=C/CO

[19.53, 22.8]

Provide the reported LEUKOCYTE COUNT of each entry below, same order.
1. CC(C)Oc1ccc2c(=O)c(-c3ccccc3)coc2c1
2. COC(=O)Nc1nc2ccc([S+]([O-])c3ccccc3)cc2[nH]1 (stereo not given)

1: 13.37; 2: 10.2
